# key: entry, value: IC50
# assayed_target: baculovirus-expressed ALK (Homo sapiens, UniProt Q9UM73)
# Construct: host or cells: baculovirus expression system
# Sequence (Q9UM73 19-1620): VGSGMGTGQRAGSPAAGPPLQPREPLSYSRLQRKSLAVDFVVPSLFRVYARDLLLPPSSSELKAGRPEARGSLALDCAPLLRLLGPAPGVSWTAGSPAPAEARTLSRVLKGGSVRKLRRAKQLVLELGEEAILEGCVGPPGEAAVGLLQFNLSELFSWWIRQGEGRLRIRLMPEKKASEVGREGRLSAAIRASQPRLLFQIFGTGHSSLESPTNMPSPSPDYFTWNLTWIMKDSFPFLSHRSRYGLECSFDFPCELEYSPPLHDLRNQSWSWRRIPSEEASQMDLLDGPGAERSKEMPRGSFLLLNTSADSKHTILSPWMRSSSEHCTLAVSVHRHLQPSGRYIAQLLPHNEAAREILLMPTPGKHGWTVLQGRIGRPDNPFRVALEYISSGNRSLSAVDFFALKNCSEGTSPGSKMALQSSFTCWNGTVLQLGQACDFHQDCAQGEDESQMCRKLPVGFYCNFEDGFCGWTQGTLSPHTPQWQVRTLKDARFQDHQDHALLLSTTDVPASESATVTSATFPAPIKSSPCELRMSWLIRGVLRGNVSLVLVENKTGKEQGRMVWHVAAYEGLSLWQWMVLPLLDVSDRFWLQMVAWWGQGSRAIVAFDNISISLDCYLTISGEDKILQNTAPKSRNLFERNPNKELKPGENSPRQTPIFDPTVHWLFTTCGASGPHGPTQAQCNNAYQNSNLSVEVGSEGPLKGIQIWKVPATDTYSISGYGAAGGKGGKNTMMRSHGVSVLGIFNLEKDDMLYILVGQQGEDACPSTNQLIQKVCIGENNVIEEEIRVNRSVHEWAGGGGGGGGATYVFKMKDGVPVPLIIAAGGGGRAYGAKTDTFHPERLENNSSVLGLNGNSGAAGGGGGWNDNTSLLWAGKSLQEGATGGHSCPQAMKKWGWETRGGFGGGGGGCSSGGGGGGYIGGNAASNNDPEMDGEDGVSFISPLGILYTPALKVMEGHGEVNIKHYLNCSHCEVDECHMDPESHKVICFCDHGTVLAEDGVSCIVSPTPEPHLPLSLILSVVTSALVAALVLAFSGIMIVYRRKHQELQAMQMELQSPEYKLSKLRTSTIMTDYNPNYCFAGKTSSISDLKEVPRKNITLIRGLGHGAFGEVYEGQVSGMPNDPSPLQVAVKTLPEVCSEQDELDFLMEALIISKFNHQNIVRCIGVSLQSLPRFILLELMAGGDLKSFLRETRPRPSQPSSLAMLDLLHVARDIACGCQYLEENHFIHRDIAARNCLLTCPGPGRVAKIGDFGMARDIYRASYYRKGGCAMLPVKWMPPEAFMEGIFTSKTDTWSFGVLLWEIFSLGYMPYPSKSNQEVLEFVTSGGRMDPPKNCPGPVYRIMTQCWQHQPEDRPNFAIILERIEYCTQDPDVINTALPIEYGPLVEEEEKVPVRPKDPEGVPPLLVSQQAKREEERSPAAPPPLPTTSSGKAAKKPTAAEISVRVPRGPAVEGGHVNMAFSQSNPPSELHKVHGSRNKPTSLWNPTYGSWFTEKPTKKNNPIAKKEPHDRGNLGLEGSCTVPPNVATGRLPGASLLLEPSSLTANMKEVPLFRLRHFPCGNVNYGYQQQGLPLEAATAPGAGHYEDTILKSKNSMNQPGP
# procedure_text: ALK Kinase Assay (ELISA-type, time-resolved fluorescence)
# Type: biochemical
# test_context: 1 μM ATP (Km level), 30 ng/ml ALK, 37° C., 15 minutes; read-out: ALK Activity (ALK kinase inhibition, IC50 class)

Please review the entries below; each comes with its answer.
{"compound": "CC1(C)CCC(=O)Nc2ccc(Nc3ncc(Cl)c(Nc4ccc5[nH]c(C(F)(F)F)nc5c4)n3)cc21 [Example 1014]", "assayed_target": "baculovirus-expressed ALK (Homo sapiens, UniProt Q9UM73)", "IC50": "< 100 nM"}
{"compound": "CNC(=O)c1cccc(Cl)c1Nc1nc(Nc2ccc3c(c2)CCN(CC(=O)N(C)C)CC3)ncc1Cl [Example 1370]", "assayed_target": "baculovirus-expressed ALK (Homo sapiens, UniProt Q9UM73)", "IC50": "100 to 1000 nM"}
{"compound": "CCN1CCc2cc(Nc3ncc(Cl)c(Nc4ccc(N5CCOCC5)cc4OC)n3)c(OC)cc2CC1 [Example 1129]", "assayed_target": "baculovirus-expressed ALK (Homo sapiens, UniProt Q9UM73)", "IC50": "< 100 nM"}

With those in mind, consider the next compound.
Exercise: Answer briefly: IC50 recorded on baculovirus-expressed ALK (Homo sapiens, UniProt Q9UM73) for COCCN1CCc2ccc(Nc3ncc(Cl)c(Nc4c(OC)cccc4C(=O)NCC#N)n3)cc2CC1 [Example 1063]
Solution: 1000 to 10000 nM
